Protocol details: Protein binding in dog plasma by equilibrium dialysis
Format: in vitro ADME
Run conditions: 10 μM, 6 hours at 37° C.
Quantity name: Plasma Protein Binding (% free)

{"Molecule": "CC(C)[C@H](NC(=O)CCCCCNC(=O)c1ccccn1)C(=O)N1CCC[C@H]1C(=O)N[C@H](C(=O)C(F)(F)F)C(C)C [AI-167]", "Unit string": "% free", "Plasma Protein Binding (% free)": 19.0}

A = CC(C)[C@H](NC(=O)[C@@H]1CCCN1C(=O)[C@@H](NC(=O)CCCCCNC(=O)c1ccccn1)C(C)C)C(=O)c1nnc(-c2ccccc2)o1 [AI-158]
B = Cc1cccc(Cc2nnc(C(=O)[C@@H](NC(=O)[C@@H]3CCCN3C(=O)[C@@H](NC(=O)OCc3ccccc3)C(C)C)C(C)C)o2)c1 [CE-2072, reference compound]
C = CC(C)[C@H](NC(=O)[C@@H]1CCCN1C(=O)[C@@H](NC(=O)CCCCCNC(=O)c1ccccn1)C(C)C)C(=O)c1nnc(C(C)(C)C)o1 [AI-168]
Rank descending by Plasma Protein Binding (% free). Order the labels as requested and list them.
C, A, B
(C: 17.0 % free, A: 8.0 % free, B: 1.0 % free)

----------
Protocol details: Solubility in 0.1 M PBS by LC-MS
Format: physicochemical
Run conditions: aqueous buffer, kinetic from dmso stock; 0.1 M PBS pH 7.4, 2% DMSO, 2 hours at 37° C.
Description: Solubility of test compounds was measured by adding small volumes of DMSO stock solutions (final concentration 2% DMSO) to 0.1 M PBS (pH 7.4) and incubating for 2 hours at 37° C. Subsequently, the samples were filtered and the concentration of test compounds was determined by LC-MS.
Quantity name: solubility at 2 h (µM)

{"Smiles input": "CC(C)[C@H](NC(=O)CCCCCNC(=O)c1ccccn1)C(=O)N1CCC[C@H]1C(=O)N[C@H](C(=O)C(F)(F)F)C(C)C", "Unit string": "µM", "solubility at 2 h": 164}

a = CC(C)[C@H](NC(=O)[C@@H]1CCCN1C(=O)[C@@H](NC(=O)CCCCCNC(=O)c1ccccn1)C(C)C)C(=O)c1nnc(-c2ccccc2)o1
b = CC(C)[C@H](NC(=O)[C@@H]1CCCN1C(=O)[C@@H](NC(=O)CCCCCNC(=O)c1ccccn1)C(C)C)C(=O)c1nnc(C(C)(C)C)o1
Which shows the larger solubility at 2 h value: a or b ? Choose, then provide that item's label.
b
